- studySystem: G3BP2a NTF2-like domain (G3BP2a 1–139) (Homo sapiens, UniProt Q9UN86)
- Construct: His6 (thrombin-cleavable) (N, cleaved yes); made in house; host or cells: Escherichia coli BL21(DE3)
- Sequence (Q9UN86 1-139): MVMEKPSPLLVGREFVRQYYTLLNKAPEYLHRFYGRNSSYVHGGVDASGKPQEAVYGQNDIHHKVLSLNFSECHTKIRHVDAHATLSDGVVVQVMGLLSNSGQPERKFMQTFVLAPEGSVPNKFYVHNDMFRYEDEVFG
- assayMethodText: ITC, Nup peptide binding to G3BP2a NTF2-like domain (1–139)
- condition: ITC (ITC200), G3BP2a NTF2-like domain; 0.1 M NaCl and 0.1 M HEPES, pH 8; 25°C; aliquots of 2 µL peptide (5.2 mM) every 180 seconds; mean ± standard deviation, repeated three times; data not shown
Where no end group is shown, it is not given here.
recordedMetric: Kd (µM)
The reply should be a number in µM, with the unit left off.

Exercise: Fill in the blank: the reported Kd of DSGFSFGSK [FxFG, DSGFSFGSK] is ____.
Solution: 114
